Give % of CD8- (CD4+) cells positive for E7(11-19) tetramer staining for every item shown.
# TARGET ENTITY: T1, HPV16 E7(11-19)-peptide-MHC tetramer complex (human papillomavirus 16 (HPV16); human)
# T1 construct: also called E7(11-19)-specific tetramer; MHC/E7(11-19) peptide tetramer
# ASSAY: flow cytometry, peptide-MHC tetramer staining of TCR-transduced primary human T cells;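 further: normal donor T cells activated with anti-CD3/anti-CD28, then lentivirally transduced with TCRs, with mock-transduced cells as control, co-stained for the transduction marker and CD8, tetramers presented by HLA-A02:01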
Report the figure in % without appending any unit label.

Give the measured % of CD8- (CD4+) cells positive for E7(11-19) tetramer staining of TCR 60 (mouse constant regions) (TCR, V domains shown) V domain 1: QKEVEQNSGPLSVPEGAIASLNCTYSDRGSQSFFWYRQYSGKSPELIMFIYSNGDKEDGRFTAQLNKASQYVSLLIRDSQPSDSATYLCAVNMLGSGGSNYKLTFGKGTLLTVNP V domain 2: EPEVTQTPSHQVTQMGQEVILRCVPISNHLYFYWYRQILGQKVEFLVSFYNNEISEKSEIFDDQFSVERPDGSNFTLKIRSTKLEDSAMYFCAISRTVSYEQYFGPGTRLTVTE .
0.13

Give the measured % of CD8- (CD4+) cells positive for E7(11-19) tetramer staining of TCR 64 (mouse constant regions) (TCR, V domains shown) V domain 1: AQKVTQAQTEISVVEKEDVTLDCVYETRDTTYYLFWYKQPPSGELVFLIRRNSFDEQNEISGRYSWNFQKSTSSFNFTITASQVVDSAVYFCALSGVDNYGQNFVFGPGTRLSVLP V domain 2: DTAVSQTPKYLVTQMGNDKSIKCEQNLGHDTMYWYKQDSKKFLKIMFSYNNKELIINETVPNRFSPKSPDKAHLNLHINSLELGDSAVYFCASSQGEAGANVLTFGAGSRLTVLE .
0.06
